- testedSystem: T1, EGFR variant III (EGFRvIII), on DKMG glioblastoma cells (human, UniProt P00533 25-1210)
- T1 construct: whole, on cells; DKMG cells express both wild type EGFR (92% of cells) and EGFRvIII (82%); All results on DKMG cells are written against this molecule; also called EGFR mutant; EGFRVIII DKMG
- protocolNotes: flow cytometry, 2.5 uM FITC-peptide on DKMG cells (EGFR WT and EGFRvIII)
Bridge positions count the residues as written; N and C are the ends. * marks the point of attachment. FITC = O=C1OC2(c3ccc(O)cc3Oc3cc(O)ccc32)c2ccc(NC(=S)*)cc21; GABA = NCCCC(=O)O

| binder | binding result |
| --- | --- |
| {FITC-GABA}-CVRWRFGRC-NH2 (disulfide 1-9; SMILES CC(C)[C@@H]1NC(=O)[C@@H](NC(=O)CCCNC(=S)Nc2ccc3c(c2)C(=O)OC32c3ccc(O)cc3Oc3cc(O)ccc32)CSSC[C@@H](C(N)=O)NC(=O)[C@H](CCCNC(=N)N)NC(=O)CNC(=O)[C@H](Cc2ccccc2)NC(=O)[C@H](CCCNC(=N)N)NC(=O)[C@H](Cc2c[nH]c3ccccc23)NC(=O)[C@H](CCCNC(=N)N)NC1=O, also called FITC-labeled P3) [FITC-labeled cyclic peptide P3, c(CVRWRFGRC)] | binds |
| {FITC-GABA}-CHVPGSYIC-NH2 (disulfide 1-9; SMILES CC[C@H](C)[C@@H]1NC(=O)[C@H](Cc2ccc(O)cc2)NC(=O)[C@H](CO)NC(=O)CNC(=O)[C@@H]2CCCN2C(=O)[C@H](C(C)C)NC(=O)[C@H](Cc2c[nH]cn2)NC(=O)[C@@H](NC(=O)CCCNC(=S)Nc2ccc3c(c2)C(=O)OC32c3ccc(O)cc3Oc3cc(O)ccc32)CSSC[C@@H](C(N)=O)NC1=O, also called FITC-P6; P6-FITC conjugate) [FITC-labeled cyclic peptide P6, c(CHVPGSYIC)] | binds |
| {FITC-GABA}-CLAVEVRPC-NH2 (disulfide 1-9; SMILES CC(C)C[C@@H]1NC(=O)[C@@H](NC(=O)CCCNC(=S)Nc2ccc3c(c2)C(=O)OC32c3ccc(O)cc3Oc3cc(O)ccc32)CSSC[C@@H](C(N)=O)NC(=O)[C@@H]2CCCN2C(=O)[C@H](CCCNC(=N)N)NC(=O)[C@H](C(C)C)NC(=O)[C@H](CCC(=O)O)NC(=O)[C@H](C(C)C)NC(=O)[C@H](C)NC1=O, also called FITC-labeled P4) [FITC-labeled cyclic peptide P4, c(CLAVEVRPC)] | binds |
